system_name: Wee1A kinase (CDK1 Tyr15 phosphorylation in ACHN renal cell carcinoma cells) (Homo sapiens, UniProt P30291)
Construct: pCDK1 Tyr15 immunofluorescence read-out
Sequence (P30291 whole entry): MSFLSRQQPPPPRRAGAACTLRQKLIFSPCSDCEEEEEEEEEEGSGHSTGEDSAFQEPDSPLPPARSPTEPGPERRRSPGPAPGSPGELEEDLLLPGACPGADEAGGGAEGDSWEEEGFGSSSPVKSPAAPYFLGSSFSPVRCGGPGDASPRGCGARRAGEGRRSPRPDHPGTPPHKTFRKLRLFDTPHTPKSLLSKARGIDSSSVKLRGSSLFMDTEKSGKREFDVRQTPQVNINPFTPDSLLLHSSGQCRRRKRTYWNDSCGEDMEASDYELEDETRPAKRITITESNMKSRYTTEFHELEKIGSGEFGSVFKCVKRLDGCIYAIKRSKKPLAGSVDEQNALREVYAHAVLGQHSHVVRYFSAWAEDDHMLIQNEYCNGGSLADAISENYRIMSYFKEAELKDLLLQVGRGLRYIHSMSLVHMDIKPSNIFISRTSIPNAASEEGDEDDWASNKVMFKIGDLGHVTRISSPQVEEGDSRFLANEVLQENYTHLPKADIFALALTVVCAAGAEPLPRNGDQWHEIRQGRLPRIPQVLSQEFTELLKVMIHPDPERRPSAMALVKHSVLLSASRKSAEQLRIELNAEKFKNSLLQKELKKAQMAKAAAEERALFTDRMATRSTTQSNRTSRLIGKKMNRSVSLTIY
assay_notes: High-content imaging of pCdk1 Y15, Wee1A kinase target engagement in ACHN cells
Assay type: cell-based
experimental_setup: 4 h treatment, nuclear positivity for pCdk1 Y15 vs DMSO control, read-out: CDK1 Tyr15 Phosphorylation EC50
Readings of EC50 for the listed compounds
recorded_endpoint: EC50

- compound: "C=CCn1c(=O)c2cnc(Nc3cnn(C)c3)nc2n1-c1cccc(OC2CCN(C)CC2)n1 [Compound 137]"
  recorded_endpoint: "EC50"
  result_value: "< 100 nM"
- compound: "CCn1c(=O)c2cnc(Nc3ccc(Br)cc3)nc2n1-c1cccc(OC2CCN(C)CC2)n1 [Compound 268]"
  recorded_endpoint: "EC50"
  result_value: "100 to 500 nM"
- compound: "C=CCn1c(=O)c2cnc(Nc3ccc(Cl)cc3)nc2n1-c1cccc(O[C@H]2CCNC2)n1 [Compound 145]"
  recorded_endpoint: "EC50"
  result_value: "100 to 500 nM"
- compound: "C=CCn1c(=O)c2cnc(Nc3ccc4c(cnn4C)c3)nc2n1-c1ccnc(OC2CCN(C)CC2)n1 [Compound 279]"
  recorded_endpoint: "EC50"
  result_value: "< 100 nM"
- compound: "C=CCn1c(=O)c2cnc(Nc3ccc(Cl)cc3)nc2n1-c1cccc(O[C@H]2CCN(C)C2)n1 [Compound 148]"
  recorded_endpoint: "EC50"
  result_value: "100 to 500 nM"
- compound: "C=CCn1c(=O)c2cnc(Nc3cnc4c(cnn4C(C)C)c3)nc2n1-c1cccc(OC2CCNCC2)n1 [Compound 407]"
  recorded_endpoint: "EC50"
  result_value: "< 100 nM"
- compound: "C=CCn1c(=O)c2cnc(Nc3ccc4c(cnn4C)c3)nc2n1-c1cccc(O[C@@H]2CCN(C)[C@H](C)C2)n1 (stereo in doubt) [Compound 382]"
  recorded_endpoint: "EC50"
  result_value: "< 100 nM"
- compound: "C=CCn1c(=O)c2cnc(Nc3ccc4c(cnn4C)c3)nc2n1-c1cccc(O[C@H]2CCNC2)n1 [Compound 100]"
  recorded_endpoint: "EC50"
  result_value: "100 to 500 nM"
- compound: "C=CCn1c(=O)c2cnc(Nc3ccc(F)cc3)nc2n1-c1cccc(OC2CCNCC2)n1 [Compound 304]"
  recorded_endpoint: "EC50"
  result_value: "< 100 nM"
- compound: "C=CCn1c(=O)c2cnc(Nc3cnn(C(C)C)c3)nc2n1-c1cccc(OC2CC3CCCC(C2)N3C)n1 (stereo not drawn) [Compound 193]"
  recorded_endpoint: "EC50"
  result_value: "100 to 500 nM"
- compound: "C=CCn1c(=O)c2cnc(Nc3ccc(C#N)c(C)c3)nc2n1-c1cccc(OC2CCN(C)CC2)n1 [Compound 204]"
  recorded_endpoint: "EC50"
  result_value: "< 100 nM"
- compound: "C=CCn1c(=O)c2cnc(Nc3ccc4c(cnn4C)c3)nc2n1-c1cccc(OC2CCCNCC2)n1 (single isomer, unassigned) [Compound 357]"
  recorded_endpoint: "EC50"
  result_value: "< 100 nM"
- compound: "C=CCn1c(=O)c2cnc(Nc3ccc(F)cc3)nc2n1-c1cccc(OC2CCN(C)CC2)n1 [Compound 207]"
  recorded_endpoint: "EC50"
  result_value: "< 100 nM"
- compound: "C=CCn1c(=O)c2cnc(Nc3cccc(-n4cccn4)c3)nc2n1-c1cccc(OC2CCNCC2)n1 [Compound 363]"
  recorded_endpoint: "EC50"
  result_value: "100 to 500 nM"
- compound: "C=CCn1c(=O)c2cnc(Nc3ccc(OCC(F)(F)F)cc3)nc2n1-c1ccnc(OC2CCN(C)CC2)n1 [Compound 253]"
  recorded_endpoint: "EC50"
  result_value: "< 100 nM"
- compound: "C=CCn1c(=O)c2cnc(Nc3ccc4ncnn4c3)nc2n1-c1cccc(OC2CCN(C)CC2)n1 [Compound 249]"
  recorded_endpoint: "EC50"
  result_value: "100 to 500 nM"
- compound: "C=CCn1c(=O)c2cnc(Nc3ccc(OC(F)(F)F)cc3)nc2n1-c1cccc(NC2CCNCC2)n1 [Compound 135]"
  recorded_endpoint: "EC50"
  result_value: "500 to 1000 nM"
- compound: "Cc1cc(Nc2ncc3c(=O)n(C)n(-c4cccc(OC5CCNCC5)n4)c3n2)ccc1F [Compound 154]"
  recorded_endpoint: "EC50"
  result_value: "100 to 500 nM"
- compound: "C=CCn1c(=O)c2cnc(Nc3ccc(OCC(C)C)cc3)nc2n1-c1cccc(OC2CCN(C)CC2)n1 [Compound 257]"
  recorded_endpoint: "EC50"
  result_value: "< 100 nM"
- compound: "C=CCn1c(=O)c2cnc(Nc3cncc(OC)c3)nc2n1-c1cccc(OC2CCN(C)CC2)n1 [Compound 342]"
  recorded_endpoint: "EC50"
  result_value: "100 to 500 nM"
- compound: "C=CCn1c(=O)c2cnc(Nc3ccc(C#N)c(C)c3)nc2n1-c1cccc(OC2CCNCC2)n1 [Compound 293]"
  recorded_endpoint: "EC50"
  result_value: "< 100 nM"
- compound: "C=CCn1c(=O)c2cnc(Nc3ccc4c(cnn4C)c3)nc2n1-c1cccc(O[C@H]2CCCNC2)n1 [Compound 104]"
  recorded_endpoint: "EC50"
  result_value: "< 100 nM"
- compound: "C=CCn1c(=O)c2cnc(Nc3ccc(Cl)cc3)nc2n1-c1cccc(N[C@@H]2CCCN(C)C2)n1 [Compound 168]"
  recorded_endpoint: "EC50"
  result_value: "> 1000 nM"
- compound: "C=CCn1c(=O)c2cnc(Nc3ccc4ncsc4c3)nc2n1-c1cccc(OC2CCN(C)CC2)n1 [Compound 303]"
  recorded_endpoint: "EC50"
  result_value: "< 100 nM"
- compound: "C=CCn1c(=O)c2cnc(Nc3ccc(OC)c(C)c3)nc2n1-c1cccc(NC2CCNCC2)n1 [Compound 127]"
  recorded_endpoint: "EC50"
  result_value: "100 to 500 nM"
- compound: "C=CCn1c(=O)c2cnc(Nc3ccc4c(cnn4CC(C)C)c3)nc2n1-c1cccc(OC2CCN(C)CC2)n1 [Compound 394]"
  recorded_endpoint: "EC50"
  result_value: "< 100 nM"
- compound: "C=CCn1c(=O)c2cnc(Nc3cccc(-n4cccn4)c3)nc2n1-c1cccc(OC2CCN(C)CC2)n1 [Compound 364]"
  recorded_endpoint: "EC50"
  result_value: "< 100 nM"
- compound: "C=CCn1c(=O)c2cnc(Nc3ccc4oc(C)nc4c3)nc2n1-c1cccc(OC2CCNCC2)n1 [Compound 232]"
  recorded_endpoint: "EC50"
  result_value: "< 100 nM"
- compound: "C=CCn1c(=O)c2cnc(Nc3ccc(C#N)cc3)nc2n1-c1cccc(OC2CCNCC2)n1 [Compound 300]"
  recorded_endpoint: "EC50"
  result_value: "100 to 500 nM"
- compound: "C=CCn1c(=O)c2cnc(Nc3ccnc(OC)c3)nc2n1-c1cccc(OC2CCN(C)CC2)n1 [Compound 263]"
  recorded_endpoint: "EC50"
  result_value: "< 100 nM"

* * *

Readings of pIC50 for the listed molecules
system_name: Myt1 kinase (recombinant PMYT-1) (Homo sapiens)
Construct: full length PMYT-1 was expressed by baculovirus in insect cells; purchased Invitrogen A30984; host or cells: insect cells (baculovirus)
Sequence (Q99640 1-499): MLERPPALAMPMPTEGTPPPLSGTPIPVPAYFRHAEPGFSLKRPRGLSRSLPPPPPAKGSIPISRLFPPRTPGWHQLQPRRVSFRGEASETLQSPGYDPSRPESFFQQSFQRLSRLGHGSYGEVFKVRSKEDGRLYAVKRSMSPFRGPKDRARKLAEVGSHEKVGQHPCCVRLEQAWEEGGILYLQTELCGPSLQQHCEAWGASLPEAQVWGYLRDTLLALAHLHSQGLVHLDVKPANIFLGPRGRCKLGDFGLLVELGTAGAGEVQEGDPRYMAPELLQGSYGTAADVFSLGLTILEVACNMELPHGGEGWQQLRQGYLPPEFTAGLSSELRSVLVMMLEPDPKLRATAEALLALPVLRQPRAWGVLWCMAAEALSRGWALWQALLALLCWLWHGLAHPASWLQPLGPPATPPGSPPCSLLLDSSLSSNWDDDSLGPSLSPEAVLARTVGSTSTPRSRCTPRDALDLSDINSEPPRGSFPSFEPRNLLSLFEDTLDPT
assay_notes: Myt1 kinase binding assay (LanthaScreen Eu Kinase Binding Assay)
experimental_setup: 3 nM tracer 178, 2.5 nM PMYT-1, 1 nM Eu-labeled antibody; read-out: Myt1 kinase Binding IC50
pIC50: −log10 of the molar value.
recorded_endpoint: pIC50

- molecule: "C=CCn1c(=O)c2cnc(Nc3ccc(Cl)cc3)nc2n1-c1cccc(N(C)[C@H]2CCCN(C)C2)n1 [Compound 164]"
  result_value: "< 6.30"
- molecule: "C=CCn1c(=O)c2cnc(Nc3ccc4c(ccn4C(C)=O)c3)nc2n1-c1cccc(OC2CCNCC2)n1 [Compound 384]"
  result_value: "7.00 to 7.70"
- molecule: "C=CCn1c(=O)c2cnc(Nc3ccc4c(cnn4C)c3)nc2n1-c1cccc(O[C@@H]2CCN(C)[C@@H](C)C2)n1 (stereo in doubt) [Compound 403]"
  result_value: "7.00 to 7.70"
- molecule: "C=CCn1c(=O)c2cnc(Nc3cccc(C)c3)nc2n1-c1cccc(OC2CCN(C)CC2)n1 [Compound 191]"
  result_value: "> 7.70"
- molecule: "C=CCn1c(=O)c2cnc(Nc3cnn(CC(C)C)c3)nc2n1-c1cccc(OC2CCN(C)CC2)n1 [Compound 200]"
  result_value: "6.30 to 7.00"
- molecule: "C=CCn1c(=O)c2cnc(Nc3ccc(C)nc3)nc2n1-c1cccc(OC2CCNCC2)n1 [Compound 237]"
  result_value: "7.00 to 7.70"
- molecule: "C=CCn1c(=O)c2cnc(Nc3ccc(Cl)cc3)nc2n1-c1cccc(NC2CCN(C)CC2)n1 [Compound 138]"
  result_value: "6.30 to 7.00"
- molecule: "C=CCn1c(=O)c2cnc(Nc3ccc(Cl)cc3)nc2n1-c1cccc(N[C@@H]2CCCN(C)C2)n1 [Compound 168]"
  result_value: "< 6.30"
- molecule: "CCn1c(=O)c2cnc(Nc3cccc(C)c3)nc2n1-c1cccc(OC2CCN(C)CC2)n1 [Compound 289]"
  result_value: "6.30 to 7.00"
- molecule: "C=CCn1c(=O)c2cnc(Nc3ccc(OCC(C)C)cc3)nc2n1-c1cccc(OC2CCN(C)CC2)n1 [Compound 257]"
  result_value: "> 7.70"
- molecule: "C=CCn1c(=O)c2cnc(Nc3ccc4c(cnn4C)c3)nc2n1-c1cccc(OC2CCNC(C)C2)n1 (stereo not drawn) [Compound 404]"
  result_value: "7.00 to 7.70"
- molecule: "C=CCn1c(=O)c2cnc(Nc3ccc4c(cnn4C)c3)nc2n1-c1cccc(O[C@H]2CCCNC2)n1 [Compound 104]"
  result_value: "> 7.70"
- molecule: "CCn1c(=O)c2cnc(Nc3ccc(C#N)cc3)nc2n1-c1cccc(OC2CCNCC2)n1 [Compound 302]"
  result_value: "7.00 to 7.70"
- molecule: "C=CCn1c(=O)c2cnc(Nc3ccc4nsnc4c3)nc2n1-c1cccc(OC2CCN(C)CC2)n1 [Compound 208]"
  result_value: "> 7.70"
- molecule: "C=CCn1c(=O)c2cnc(Nc3ccc4c(cnn4C4CC4)c3)nc2n1-c1cccc(OC2CCNCC2)n1 [Compound 376]"
  result_value: "> 7.70"

Data origin: patent US20260364080A1
